# Assay Text: Solubility of cyclocreatine in water
# Assay type: physicochemical
Measured Attribute: solubility
Express the reported value numerically, then name its unit.

Please report the measured solubility for NC1=NCCN1CC(=O)O [Cyclocreatine, cyclocreatine]
17 mg/mL
